These entries and their values trace back to BigSolDB 2.1.

conditions: in methyl acetate, 303.1 K
Assay Readout: solubility (mole fraction)
// response body must contain only the number

Please give the documented solubility (mole fraction) of CC[C@H](C)C(=O)O[C@H]1C[C@@H](C)C=C2C=C[C@H](C)[C@H](CC[C@@H]3C[C@@H](O)CC(=O)O3)[C@H]21
0.00543

----------
conditions: in isobutyl acetate, 306.3 K
Assay Readout: solubility (mole fraction)
// response body must contain only the number

Please give the documented solubility (mole fraction) of CC[C@H](C)C(=O)O[C@H]1C[C@@H](C)C=C2C=C[C@H](C)[C@H](CC[C@@H]3C[C@@H](O)CC(=O)O3)[C@H]21
0.00702

----------
settings: in tert-butyl acetate, 300.3 K
Assay Readout: solubility (mole fraction)
// response body must contain only the number

Please give the documented solubility (mole fraction) of CC[C@H](C)C(=O)O[C@H]1C[C@@H](C)C=C2C=C[C@H](C)[C@H](CC[C@@H]3C[C@@H](O)CC(=O)O3)[C@H]21
0.00479

----------
details: in n-propyl acetate, 288.3 K
Assay Readout: solubility (mole fraction)
// response body must contain only the number

Please give the documented solubility (mole fraction) of CC[C@H](C)C(=O)O[C@H]1C[C@@H](C)C=C2C=C[C@H](C)[C@H](CC[C@@H]3C[C@@H](O)CC(=O)O3)[C@H]21
0.00438

----------
conditions: in n-propyl acetate, 297.2 K
Assay Readout: solubility (mole fraction)
// response body must contain only the number

Please give the documented solubility (mole fraction) of CC[C@H](C)C(=O)O[C@H]1C[C@@H](C)C=C2C=C[C@H](C)[C@H](CC[C@@H]3C[C@@H](O)CC(=O)O3)[C@H]21
0.00587

----------
conditions: in ethyl acetate, 303.1 K
Assay Readout: solubility (mole fraction)
// response body must contain only the number

Please give the documented solubility (mole fraction) of CC[C@H](C)C(=O)O[C@H]1C[C@@H](C)C=C2C=C[C@H](C)[C@H](CC[C@@H]3C[C@@H](O)CC(=O)O3)[C@H]21
0.00778

----------
settings: in methyl acetate, 288.3 K
Assay Readout: solubility (mole fraction)
// response body must contain only the number

Please give the documented solubility (mole fraction) of CC[C@H](C)C(=O)O[C@H]1C[C@@H](C)C=C2C=C[C@H](C)[C@H](CC[C@@H]3C[C@@H](O)CC(=O)O3)[C@H]21
0.0034

----------
conditions: in n-butyl acetate, 300.3 K
Assay Readout: solubility (mole fraction)

Please give the documented solubility (mole fraction) of CC[C@H](C)C(=O)O[C@H]1C[C@@H](C)C=C2C=C[C@H](C)[C@H](CC[C@@H]3C[C@@H](O)CC(=O)O3)[C@H]21
0.00679

----------
details: in isopropyl acetate, 306.3 K
Assay Readout: solubility (mole fraction)
// response body must contain only the number

Please give the documented solubility (mole fraction) of CC[C@H](C)C(=O)O[C@H]1C[C@@H](C)C=C2C=C[C@H](C)[C@H](CC[C@@H]3C[C@@H](O)CC(=O)O3)[C@H]21
0.00677

----------
conditions: in isobutyl acetate, 303.1 K
Assay Readout: solubility (mole fraction)

Please give the documented solubility (mole fraction) of CC[C@H](C)C(=O)O[C@H]1C[C@@H](C)C=C2C=C[C@H](C)[C@H](CC[C@@H]3C[C@@H](O)CC(=O)O3)[C@H]21
0.00627
